- TARGET OF ASSAY: human ether-à-go-go-related gene (hERG) potassium channel (human);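 note: peak tail current of the secondary pulse compared with the same well before compound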
- PROCEDURE SUMMARY: primary screen, population patch clamp on CHO cells stably expressing hERG; higher = less effect of the substance
- Experimental: Briefly, Chinese hamster ovary (CHO) cells stably expressing the hERG channel were dislodged from tissue culture flasks and dispensed into PPC plates. […] During the recording, background leak currents were estimated by a 100 ms step to -80 mV from an initial holding potential of -70 mV and subtracted from the subsequent current measurement. The campaign was conducted in two phases using slight differences in recording protocol. […]
Hit rate of the full screen: of about 310,000 compounds, about 14,000 (4.5%) showed an effect of 50% or more. Effects have a minus sign here. The sample as a whole holds a higher share of strong results than the screen did.
I'd be grateful if you could share measured hERG current change (%, negative = inhibition) at 10uM for these entries.
Give bare numbers, in %.

Sample records with hERG current change (%, negative = inhibition) at 10uM:
CCOc1ccc(C(=O)NCC(=O)N2CC=C(c3ccccc3)CC2)cc1OCC | -62.9
O=C(CSc1nnc(CNC(=O)c2ccco2)o1)Nc1ccc(F)cc1F | 8.95

Below are 2 molecules. Give each one its hERG current change (%, negative = inhibition) at 10uM.
1. Cc1ccccc1-n1nnnc1SC(C)C(=O)Nc1ccc(N2CCN(C)CC2)cc1 (centres unmarked)
2. CN(C)CCCN(C(=O)c1ccco1)c1nc2ccc(Cl)cc2s1.Cl

// result
-25.4
-73.4

* * *

- TARGET OF ASSAY: human ether-à-go-go-related gene (hERG) potassium channel (human);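 note: peak tail current of the secondary pulse compared with the same well before compound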
- PROCEDURE SUMMARY: primary screen, population patch clamp on CHO cells stably expressing hERG; higher = less effect of the substance
Hit rate of the full screen: of about 310,000 compounds, about 14,000 (4.5%) showed an effect of 50% or more. Effects have a minus sign here. Many of the other results were omitted from the sample, so strong results are more common in it than they were.
Param threshold (-30%) applies to hERG current change (%, negative = inhibition) at 10uM; output condition met when value >= threshold, condition not met when value < threshold.

// query Assess whether reported hERG current change (%, negative = inhibition) at 10uM for "Cn1c(SCC(=O)NCc2ccc3c(c2)OCO3)nnc1-c1cccs1" sits at -30% or higher.
// result condition met

* * *

- TARGET OF ASSAY: human ether-à-go-go-related gene (hERG) potassium channel (human, UniProt Q12809);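 note: peak tail current of the secondary pulse compared with the same well before compound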
- Sequence (Q12809 whole entry, looked up): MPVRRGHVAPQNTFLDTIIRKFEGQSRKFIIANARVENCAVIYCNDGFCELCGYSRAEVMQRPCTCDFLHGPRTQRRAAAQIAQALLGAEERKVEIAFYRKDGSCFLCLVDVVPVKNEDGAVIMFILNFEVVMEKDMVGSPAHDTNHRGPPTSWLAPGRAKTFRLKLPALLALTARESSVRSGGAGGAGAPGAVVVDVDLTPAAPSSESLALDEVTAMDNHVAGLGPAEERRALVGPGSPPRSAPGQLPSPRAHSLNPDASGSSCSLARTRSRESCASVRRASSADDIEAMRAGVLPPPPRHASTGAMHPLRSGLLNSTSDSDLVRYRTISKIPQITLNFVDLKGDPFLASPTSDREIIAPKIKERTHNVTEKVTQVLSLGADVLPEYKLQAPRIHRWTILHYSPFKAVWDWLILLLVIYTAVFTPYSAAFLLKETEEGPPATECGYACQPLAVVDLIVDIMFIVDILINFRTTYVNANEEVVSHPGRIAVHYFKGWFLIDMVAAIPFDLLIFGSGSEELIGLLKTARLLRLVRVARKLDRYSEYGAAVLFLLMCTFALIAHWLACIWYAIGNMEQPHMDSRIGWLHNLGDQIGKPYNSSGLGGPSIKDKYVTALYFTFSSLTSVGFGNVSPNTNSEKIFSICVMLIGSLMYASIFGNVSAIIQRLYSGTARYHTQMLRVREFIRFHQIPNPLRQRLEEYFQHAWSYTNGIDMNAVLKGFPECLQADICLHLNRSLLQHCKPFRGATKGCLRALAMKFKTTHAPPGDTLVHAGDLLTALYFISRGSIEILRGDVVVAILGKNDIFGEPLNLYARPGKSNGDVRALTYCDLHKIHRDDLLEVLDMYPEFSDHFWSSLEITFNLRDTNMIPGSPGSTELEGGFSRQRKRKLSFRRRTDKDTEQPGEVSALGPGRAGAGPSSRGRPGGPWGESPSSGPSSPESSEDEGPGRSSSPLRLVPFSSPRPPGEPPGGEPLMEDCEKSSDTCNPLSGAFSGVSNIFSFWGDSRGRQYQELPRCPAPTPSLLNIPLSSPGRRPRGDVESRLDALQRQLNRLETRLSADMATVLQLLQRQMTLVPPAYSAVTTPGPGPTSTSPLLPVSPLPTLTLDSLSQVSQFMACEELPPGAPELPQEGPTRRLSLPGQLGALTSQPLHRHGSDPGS
- PROCEDURE SUMMARY: primary screen, population patch clamp on CHO cells stably expressing hERG; higher = less effect of the substance
In all, about 310,000 compounds went through this assay and about 14,000 (4.5%) showed an effect of 50% or more. The effect is printed as a negative number. The list comes from a sample in which strong results are over-represented; it also holds close analogues and randomly drawn compounds.
Param threshold (-40%) applies to hERG current change (%, negative = inhibition) at 10uM; output t when value >= threshold, f when value < threshold.

CC1CN(Cc2cc(=O)oc3cc(O)ccc23)CC(C)O1 (stereo not drawn) | t
CCOC(=O)N1CCN(C(=O)c2cccn3c(=O)c4sccc4nc23)CC1 | t
CCOC(=O)N1CCN(C(=O)c2cccn3c(=O)c4cc(Br)ccc4nc23)CC1 | f
COc1ccc(OC)c(CN2CCN(Cc3cc(=O)oc4cc(O)ccc34)CC2)c1 | f

// query Assess whether reported hERG current change (%, negative = inhibition) at 10uM for "O=c1cc(CN2CCOCC2)c2cc(Cl)ccc2o1" sits at -40% or higher.
// result t

// query Assess whether reported hERG current change (%, negative = inhibition) at 10uM for "O=C(c1cccn2c(=O)c3cc(Cl)ccc3nc12)N1CCOCC1" sits at -40% or higher.
// result f
